The reported measurements were obtained from ChEMBL document CHEMBL1201862.

# Tested on: SNB-75
# assay_protocol: NCI tumour cell line growth inhibition, 48 h
Calls of active or inactive are those of the source. Cut-off read from the data, not from the text of the source: active = GI50 up to about 1.1 µM and inactive = higher.
Task for the reader: assign each of the following molecules its reported GI50.

CSc1ccc(/C=C2\N=C(c3ccccc3)N(c3nc4ccc(Sc5ccccc5)cc4[nH]3)C2=O)cc1 | 18.1 µM (inactive)
c1ccc(CSc2nc(N3CCOCC3)c3cn[nH]c3n2)cc1 | 30.4 µM (inactive)
Cc1ccc2c(c1)C1(C)OC(C=CC1=O)O2 (stereo not drawn) | 1.68 µM (inactive)
c1ccc2c(c1)CCN2CCN1CCc2ccccc21 | > 10 µM (inactive)
NC(=O)C(=O)n1ncc(Cl)c(Cl)c1=O | > 42.8 µM (inactive)

// input: 7 molecules below; output: GI50 for each
1. CN(C)Cc1c(O)ccc2c1c1c(n2C)C(=O)c2ccccc2C1=O
2. O=NN(CC1(O)OCC(O)C(O)C1O)C(Cc1c[nH]c2ccccc12)C(=O)O (stereo not drawn)
3. CC(C)(C)NNC(=O)/C(=C/c1ccc([N+](=O)[O-])cc1)NC(=O)c1ccccc1
4. Cn1cc(C=C(C#N)C#N)c(=O)n(C)c1=O
5. O=C1C=C/C(=N/c2cccc3c(/N=C4/C=CC(=O)O4)cccc23)O1
6. COc1ccc(-c2nc3c(nc2-c2ccc(OC)cc2)N(C)S(=O)(=O)N=C3N)cc1
7. CC1(C)CSCC(C)(C)C(=N/N)/C1=N\N

RESULT:
["12.3 µM (inactive)", "> 100 µM (inactive)", "> 100 µM (inactive)", "> 100 µM (inactive)", "> 100 µM (inactive)", "24 µM (inactive)", "> 100 µM (inactive)"]

# return GI50 for each item in the list
1. CS(=O)(=O)OCCN(CCOS(C)(=O)=O)c1ccc(/C=N/c2cccc(Cl)c2)cc1
2. Clc1ccc(C2ON=C(c3ccccc3)N2C23CC4CC(CC(C4)C2)C3)c(Cl)c1 (stereo not drawn)
3. CC(/C(=N/NC(=O)C(N)=O)c1c(Cl)ccc(Cl)c1O)C1(O)C(=O)Nc2ccccc21 (stereo not drawn)

RESULT:
1. 2.11 µM (inactive)
2. > 10 µM (inactive)
3. 28.6 µM (inactive)

----------
# Tested on: BT-549
# assay_protocol: NCI tumour cell line growth inhibition, 48 h
Active and inactive are the calls of the source. Cut-off read from the data, not from the text of the source: active = GI50 up to about 1.1 µM and inactive = higher.
Classes to choose from: 1 for active, 0 for inactive

CC(C)(C)OC(=O)NCCCCC(N)C(N)=O (stereo not given) | 0
CCOC(=O)c1nc2cc(F)c(N3CCOCC3)cc2[nH]c1=O | 0
O=C(O)[C@@H]1CCC(=O)N1C(c1ccc2c(c1)OCO2)c1ccc2c(c1)OCO2 | 0
CN1C(=O)c2c(ccc3c2OCO3)C2C(O)Cc3cc4c(cc3C21)OCO4 (stereo not given) | 0
O=[N+]([O-])c1ccc2c(c1)nc(Cc1ccc(Cl)cc1)n2C[C@@H]1CCCN2CCCCC12 (stereo not given in full) | 0
O=c1[nH]cnc2c1ncn2[C@@H]1C[C@@H]1CO | 0
CCOC(=O)C(=O)C(/C(=N/N(C)C)C(=O)Nc1ccc(C)cc1C)c1nc2ccccc2nc1O (stereo not given) | 0
COC(OC)[C@@H]1OC[C@H](n2ccc(=O)[nH]c2=O)[C@H]1O | 0

QUERY: # outcome recorded in this test, key = CC(=O)N(CCCCNC(=O)C(F)(F)F)CCCNC(=O)C(F)(F)F
RESULT: 0

QUERY: Can you handle COc1cc2c(c(OC)c1OC)-c1ccc(SC)cc1[C@H](OC(=O)c1ccccc1)CC2 next?
RESULT: 1
